System: mHTT protein
TEST DETAILS: mHTT protein assay (2B7-MW1, Mesoscale Discovery)
Assay type: cell-based, human
RUN PARAMETERS: GM04724 (CAG 70/20) Huntington's disease patient lymphoblast cells, 48 hours, 2B7-MW1 MSD; read-out: HTT Potency - Protein EC50 mHTT (average)
Please go through the items and note down their EC50.

Some entries whose results are on file:
> print(dat)
                                   molecule        target  observed.result
1  Cn1cc(-c2ccc(-c3ccc(O[C@@H]4C[C@H]5CCC[C@H](N5)[C@H]4F)nn3)c(O)c2)cn1 (single isomer, unassigned) [49-ENT1]  mHTT protein     51 to 100 nM
2  Cc1cc(-c2ccc(-c3ccc(O[C@@H]4C[C@H]5CCC[C@H](N5)[C@@H]4F)nn3)c(O)c2)ccn1 (single isomer, unassigned) [88-ENT1]  mHTT protein      16 to 50 nM

Please fill in: EC50 reported for Cn1cc(-c2cc(O)c(-c3ccc(O[C@H]4C[C@@H]5CC[C@@H](N5)[C@H]4F)nn3)cc2F)cn1 (single isomer, unassigned) [61-ENT2] = 0.01 to 15 nM
